Measured values drawn from patent US8076346B2 for this set.

Test: Pharmacokinetics of DPB after oral DPB or NaDPB and IV NaDPB in Beagle dogs
Assay type: in vivo
Settings: Beagle, dog, in vivo, po, 75 mg/kg, oral 75 mg/kg, analyte DPB, read-out: AUC0-36
Consider the following molecules and their measured AUC(0-t) readings.
Report only the number, with the unit µg·h/mL understood.

Request: For the molecule O=C1NC(=O)C(c2ccccc2)(c2ccccc2)C(=O)N1.[Na] [NaDPB, sodium 5,5-diphenyl barbiturate] , give its measured AUC(0-t) value.
Result: 962

Request: For the molecule O=C1NC(=O)C(c2ccccc2)(c2ccccc2)C(=O)N1 [DPB, 5,5-diphenyl barbituric acid, reference compound] , give its measured AUC(0-t) value.
Result: 234

----------
Assay: Pharmacokinetics of DPB after oral DPB or NaDPB and IV NaDPB in Sprague-Dawley rats
Format: in vivo
Conditions: rat, in vivo; Sprague-Dawley rats, female, IV infusion 150 mg/kg, analyte DPB in plasma
ATTRIBUTE MEASURED: Cmax (µg/mL)
Report only the number, with the unit µg/mL understood.

Request: For the compound O=C1NC(=O)C(c2ccccc2)(c2ccccc2)C(=O)N1.[Na] [NaDPB, sodium 5,5-diphenyl barbiturate] , give its measured Cmax value.
Result: 174

----------
Assay: Pharmacokinetics of DPB after oral DPB or NaDPB and IV NaDPB in Sprague-Dawley rats
Type: in vivo
Details: male, Sprague-Dawley, rat, in vivo, iv, 150 mg/kg, male, IV infusion 150 mg/kg, analyte DPB; read-out: AUC0-48
ATTRIBUTE MEASURED: AUC(0-t)

Request: For the compound O=C1NC(=O)C(c2ccccc2)(c2ccccc2)C(=O)N1.[Na] [NaDPB, sodium 5,5-diphenyl barbiturate] , give its measured AUC(0-t) value.
Result: 5690 µg·h/mL

----------
Assay: Pharmacokinetics of DPB after oral DPB or NaDPB and IV NaDPB in Sprague-Dawley rats
Format: in vivo
Details: rat, in vivo; Sprague-Dawley rats, female, oral 150 mg/kg, analyte DPB in plasma
Consider the following molecules and their measured Cmax readings.

O=C1NC(=O)C(c2ccccc2)(c2ccccc2)C(=O)N1 [DPB, 5,5-diphenyl barbituric acid, reference compound]: 74 µg/mL

Request: For the molecule O=C1NC(=O)C(c2ccccc2)(c2ccccc2)C(=O)N1.[Na] [NaDPB, sodium 5,5-diphenyl barbiturate] , give its measured Cmax value.
Result: 104 µg/mL

----------
Consider the following compounds and their measured AUC(0-t) readings.
Experiment: Pharmacokinetics of DPB after oral DPB or NaDPB and IV NaDPB in Sprague-Dawley rats
Format: in vivo
Conditions: female, Sprague-Dawley, rat, in vivo, po, 150 mg/kg, Sprague-Dawley rats, female, oral 150 mg/kg, analyte DPB in plasma; read-out: AUC0-t
Report only the number, with the unit µg·h/mL understood.

O=C1NC(=O)C(c2ccccc2)(c2ccccc2)C(=O)N1.[Na] [NaDPB, sodium 5,5-diphenyl barbiturate]: 4040

Request: For the compound O=C1NC(=O)C(c2ccccc2)(c2ccccc2)C(=O)N1 [DPB, 5,5-diphenyl barbituric acid, reference compound] , give its measured AUC(0-t) value.
Result: 1950

----------
Experiment: Brain concentration of DPB after oral DPB or NaDPB and IV NaDPB in Sprague-Dawley rats
Assay type: in vivo
Settings: rat, in vivo, female, oral 150 mg/kg, 24 hr
ATTRIBUTE MEASURED: concentration at 24 h

Request: For the compound O=C1NC(=O)C(c2ccccc2)(c2ccccc2)C(=O)N1.[Na] [NaDPB, sodium 5,5-diphenyl barbiturate] , give its measured concentration at 24 h value.
Result: 25800 ng/g
